system: HCC1806 (Breast Carcinoma); assay: Bliss excess, mean over the matrix (fraction); higher = more synergy;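 also: after 72 h of two-drug dosing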
Reported Bliss excess by item:
Result Type: Bliss excess

# Molecule, Numeric Readout
rows = [
    ("COc1cc2ncnc(Nc3ccc(F)c(Cl)c3)c2cc1OCCCN1CCOCC1 [Gefitinib] + CC(C)n1c(=O)n(C)c2cnc3cc(F)c(-c4ccc(OCCCN5CCCCC5)nc4)cc3c21 [AZD1390] (first compound max 10 µM, 7x7, partner max 0.3 µM)", -0.0425),
    ("COc1cccc2c1C(=O)c1c(O)c3c(c(O)c1C2=O)C[C@@](O)(C(=O)CO)C[C@@H]3O[C@H]1C[C@H](N)[C@H](O)[C@H](C)O1 [Doxorubicin] + Cc1cc2ncnn2cc1Nc1ncc2c(n1)n(C1CCOCC1)c(=O)n2C [AZD7648] (first compound max 1 µM, 7x7, partner max 10 µM)", 0.0499),
    ("C=CCn1c(=O)c2cnc(Nc3ccc(N4CCN(C)CC4)cc3)nc2n1-c1cccc(C(C)(C)O)n1 [AZD1775] + C1CN(CCC1(C(=O)N[C@@H](CCO)C2=CC=C(C=C2)Cl)N)C3=NC=NC4=C3C=CN4 [Capivasertib] (first compound max 3 µM, partner max 3 µM)", 0.0151),
    ("CC1(C)CCC(CN2CCN(c3ccc(C(=O)NS(=O)(=O)c4ccc(NCC5CCOCC5)c([N+](=O)[O-])c4)c(Oc4cnc5[nH]ccc5c4)c3)CC2)=C(c2ccc(Cl)cc2)C1 [Venetoclax] + CN(C)CCCOc1ccc(-c2ccc3ncc4c(c3c2)n(C2CCOCC2)c(=O)n4C)cn1 [AZD0156] (first compound max 1 µM, 7x7, partner max 1 µM)", 0.0097),
    ("CN(CCO)CC[C@H](CSc1ccccc1)Nc1ccc(S(=O)(=O)NC(=O)c2ccc(N3CCC([C@@H](O)c4ccccc4-c4ccc(Cl)cc4)CC3)cc2)cc1S(=O)(=O)C(F)(F)F [AZD4320] + CN(C)CCCOc1ccc(-c2ccc3ncc4c(c3c2)n(C2CCOCC2)c(=O)n4C)cn1 [AZD0156] (first compound max 1 µM, 7x7, partner max 1 µM)", 0.0142),
    ("CC(=O)c1c(C)c2cnc(Nc3ccc(N4CCNCC4)cn3)nc2n(C2CCCC2)c1=O [Palbociclib] + Cc1c2c(nn1C)CSCc1cc(n(C)n1)CSc1cc(c3ccccc3c1)OCCCc1c(C(=O)O)n(C)c3c-2c(Cl)ccc13 [AZD5991] (first compound max 10 µM, 7x7, partner max 1 µM)", -0.0164),
    ("Cc1c2c(nn1C)CSCc1cc(n(C)n1)CSc1cc(c3ccccc3c1)OCCCc1c(C(=O)O)n(C)c3c-2c(Cl)ccc13 [AZD5991] + C[C@@H](Nc1cc(F)cc(F)c1)c1cc(C(=O)N(C)C)cc2c(=O)cc(N3CCOCC3)oc12 [AZD8186] (first compound max 1 µM, 7x7, partner max 3 µM)", 0.0026),
]

Values were extracted from the supplement of paper PMC11061612.
